Tested on: MDA-N
Assay Explanation: NCI tumour cell line growth inhibition, 48 h
Reported Property: log10(TGI) (log10 of the value in µM)
Short version: log10 scale, TGI, µM.

Past entries and their recorded results:
> print(dat)
                                   compound  reported.property  data.value
1  COC1=CC(=O)c2c(O)c3c(c(O)c2C1=O)CC(C)(O)OC3 (stereo unspecified)         log10(TGI)        0.55
2      CN(CCN(C)Cc1ccc(Cl)c(Cl)c1)CCN1CCCC1         log10(TGI)        1.50
3  O=c1[nH]/c(=C/c2cccs2)c(=O)[nH]/c1=C/c1ccc(OCc2ccccc2)cn1         log10(TGI)       -1.12
4     O=c1cc(N2CCOCC2)oc2c(-c3ccccc3)cccc12         log10(TGI)        1.70
5        CCCCc1ccc(Nc2nc(N)c3[nH]cnc3n2)cc1         log10(TGI)        1.51

Endpoint output: log10(TGI) of O=C(NCCc1ccc(F)cc1)c1cc(/C=C/c2cc(O)ccc2O)ccc1O . Value?
0.98

----------
Test system: K-562 leukemia
Assay Explanation: NCI tumour cell line growth inhibition, 48 h
Task for the reader: assign each of the following molecules its reported GI50.

Quick request: GI50 for each listed item, please.
1. N#CC1=C(N)Oc2c(sc3c(F)cccc23)C1c1ccc(Cl)cc1 (centres undefined)
2. O=C1/C(=C/c2ccc(F)cc2)CN(Cc2cn(CCNc3ccnc4cc(Cl)ccc34)nn2)C/C1=C\c1ccc(F)cc1

1. 1.28 µM
2. 0.301 µM

Quick request: GI50 for each listed item, please.
1. COC(=O)c1ccc2c(c1)CCN2C(=O)c1cc2c(cc1Br)OCO2
2. COc1cc(C2C3=C(COC3=O)N(CCO)c3cc4c(cc32)OCCO4)cc(OC)c1O (centres undefined)

0.824 µM
1.89 µM

----------
Task for the reader: assign each of the following compounds its reported TGI.
System: LXFL 529 NSCLC
Assay Explanation: NCI tumour cell line growth inhibition, 48 h

Quick request: TGI for each listed item, please.
1. O=C(c1ccc(Cl)cc1)N(C(=S)N1CCN(c2ccccc2)CC1)C1CCCCC1
2. Cn1c(=O)c(C2c3ccccc3Oc3c2c(=O)n(C)c2ccccc32)c(O)c2ccccc21 (stereo not drawn)
3. CCCCCCCCOCC(O)COC (stereo not drawn)
4. COc1ccc(-c2cc(-c3ccco3)c(C#N)c(=O)n2C2OC(OC(=O)c3ccccc3)C(OC(=O)c3ccccc3)C2OC(=O)c2ccccc2)cc1 (stereo not drawn)

> 100 µM
> 100 µM
> 100 µM
> 100 µM

Quick request: TGI for each listed item, please.
1. CC1(C)OC2C(CO)OC(/N=C(\NC#N)Oc3ccccc3)C2O1 (stereo not drawn)
2. O=C(/C=C(\O)C(=O)O)/C=C(\O)c1ccc(Cl)cc1

["> 100 µM", "> 100 µM"]

Quick request: TGI for each listed item, please.
1. CCOC(=O)C(=C=Cc1cccs1)C(=O)c1ccccc1
2. CC(=O)OC1CC[C@@]2(C)C(CC(OC3OC(CO)C(O)C(O)C3O)[C@]3(C)C2CCC24CC23CC[C@H]4C(C)CC(O)[C@@H](O)C(C)(C)O)C1(C)C (stereo partly drawn)

1. 28.4 µM
2. 16.1 µM
